# Tested on: S. aureus MRSA 1
# assay.details: dose-response against clinical isolate MRSA 1
# Type: cell-based
# stated.conditions: Staphylococcus aureus, mean [95% confidence interval]
quantity: IC50 (µM)
Write the answer as a number in µM, unit excluded.

stdin: I have this compound here, `O=C1Nc2cc(OC(F)(F)F)ccc2C1(c1c(Cl)nc2sccn12)c1c(Cl)nc2sccn12` , and I need its recorded IC50.
stdout: 21.4

* * *

# Tested on: S. aureus MRSA 3
# assay.details: dose-response against clinical isolate MRSA 3
# Type: cell-based
# stated.conditions: Staphylococcus aureus, mean [95% confidence interval]
quantity: pIC50
Just the number, please; pIC50 means minus log10 of the concentration in mol/L.

stdin: Find the measured pIC50: item O=C1Nc2cc(OC(F)(F)F)ccc2C1(c1c(Cl)nc2sccn12)c1c(Cl)nc2sccn12 [Compound 11] , target or system S. aureus MRSA 3.
stdout: 5.06

* * *

Give activity at 100 µM for every item shown.
# Test system: E. coli ATCC 25922
# assay.details: broth microdilution antimicrobial activity, E. coli reference strain
# Format: cell-based, Escherichia coli
# stated.conditions: Escherichia coli, ATCC25922, read-out: Microbial growth, E. coli
Write the answer as a number in %, unit excluded.

stdin: I have this molecule here, O=C1Nc2cccc(I)c2C1(O)c1c(Cl)nc2sccn12 (stereo not shown) [Compound 19] , and I need its recorded activity at 100 µM.
stdout: 95.2

stdin: I have this molecule here, O=C1Nc2cccc(C(F)(F)F)c2C1(O)c1c(Cl)nc2sccn12 (stereo not shown) [Compound 17] , and I need its recorded activity at 100 µM.
stdout: 104

stdin: I have this molecule here, Cc1cn2c(C3(O)C(=O)Nc4cccc(C(F)(F)F)c43)c(Cl)nc2s1 (stereo not shown) [Compound 18] , and I need its recorded activity at 100 µM.
stdout: 109

stdin: I have this molecule here, Cc1cn2c(C3(O)C(=O)Nc4cccc(I)c43)c(Cl)nc2s1 (stereo not shown) [Compound 20] , and I need its recorded activity at 100 µM.
stdout: 98

* * *

# assay.details: cell viability and proliferation assay (WST8/CCK-8)
# Type: cell-based
# stated.conditions: African green monkey, Vero cells (ATCC CCL-81); Vero cells; mean [95% confidence interval]
Give CC50 at 48 h for every item shown.
Write the answer as a number in µM, unit excluded.

stdin: I have this compound here, COc1cccc2c1C(=O)c1c(O)c3c(c(O)c1C2=O)C[C@@](O)(C(=O)CO)C[C@@H]3O[C@H]1C[C@H](N)[C@H](O)[C@H](C)O1 [DOX, doxorubicin, reference compound] , and I need its recorded CC50 at 48 h.
stdout: 70.6

stdin: I have this compound here, O=C1Nc2ccc(F)cc2C1(c1c(Cl)nc2sccn12)c1c(Cl)nc2sccn12 [Compound 5] , and I need its recorded CC50 at 48 h.
stdout: 116

stdin: I have this compound here, O=C1Nc2cc(OC(F)(F)F)ccc2C1(c1c(Cl)nc2sccn12)c1c(Cl)nc2sccn12 [Compound 11] , and I need its recorded CC50 at 48 h.
stdout: 63.3

* * *

Give IC50 for every item shown.
# System: S. aureus ATCC 25923
# assay.details: broth microdilution antimicrobial activity, S. aureus reference strain
# Assay type: cell-based, Staphylococcus aureus
# stated.conditions: Staphylococcus aureus, ATCC25923; S. aureus ATCC 25923; mean [95% confidence interval]

stdin: I have this molecule here, `O=C1N(CC=Cc2ccccc2)c2ccccc2C1(c1c(Cl)nc2sccn12)c1c(Cl)nc2sccn12` , and I need its recorded IC50.
stdout: 90.1 µM

stdin: I have this molecule here, `O=C1Nc2ccc(F)cc2C1(c1c(Cl)nc2sccn12)c1c(Cl)nc2sccn12` , and I need its recorded IC50.
stdout: 75.6 µM

stdin: I have this molecule here, CNC(C)C1CCC(N)C(OC2C(N)CC(N)C(OC3OCC(C)(O)C(NC)C3O)C2O)O1 (centres unmarked) [GMN, gentamicin, reference compound] , and I need its recorded IC50.
stdout: 4 µM

stdin: I have this molecule here, `O=C1Nc2cc(OC(F)(F)F)ccc2C1(c1c(Cl)nc2sccn12)c1c(Cl)nc2sccn12` , and I need its recorded IC50.
stdout: 13.8 µM

stdin: I have this molecule here, CC1(C)S[C@@H]2[C@H](NC(=O)[C@H](N)c3ccccc3)C(=O)N2[C@H]1C(=O)O [AMP, ampicillin, reference compound] , and I need its recorded IC50.
stdout: 2.56 µM

* * *

# Tested on: S. aureus MRSA 2
# assay.details: dose-response against clinical isolate MRSA 2
# Format: cell-based
# stated.conditions: Staphylococcus aureus, mean [95% confidence interval]
quantity: pIC50
Just the number, please; pIC50 means minus log10 of the concentration in mol/L.

stdin: Find the measured pIC50: item `O=C1Nc2cc(OC(F)(F)F)ccc2C1(c1c(Cl)nc2sccn12)c1c(Cl)nc2sccn12` , target or system S. aureus MRSA 2.
stdout: 4.56

* * *

# Test system: C. albicans ATCC 10231
# assay.details: broth microdilution antimicrobial activity, C. albicans reference strain
# Format: cell-based, Candida albicans
# stated.conditions: Candida albicans, ATCC10231; 100 μM; growth relative to positive control; mean ± SD; read-out: Microbial growth, C. albicans
Give activity at 100 µM for every item shown.
Write the answer as a number in %, unit excluded.

stdin: Find the measured activity at 100 µM: item `O=C1N(CC=Cc2ccccc2)c2ccccc2C1(c1c(Cl)nc2sccn12)c1c(Cl)nc2sccn12` , target or system C. albicans ATCC 10231.
stdout: 60.7

stdin: Find the measured activity at 100 µM: item `O=C1N(Cc2ccccc2)c2ccccc2C1(c1c(Cl)nc2sccn12)c1c(Cl)nc2sccn12` , target or system C. albicans ATCC 10231.
stdout: 114

stdin: Find the measured activity at 100 µM: item `O=C1Nc2cc(F)ccc2C1(c1c(Cl)nc2sccn12)c1c(Cl)nc2sccn12` , target or system C. albicans ATCC 10231.
stdout: 81.1

stdin: Find the measured activity at 100 µM: item `Cc1cn2c(C3(c4c(Cl)nc5sc(C)cn45)C(=O)N(Cc4ccccc4)c4ccccc43)c(Cl)nc2s1` , target or system C. albicans ATCC 10231.
stdout: 116

stdin: Find the measured activity at 100 µM: item `O=C1Nc2ccc(F)cc2C1(c1c(Cl)nc2sccn12)c1c(Cl)nc2sccn12` , target or system C. albicans ATCC 10231.
stdout: 102

stdin: Find the measured activity at 100 µM: item `O=C1Nc2cc(I)ccc2C1(c1c(Cl)nc2sccn12)c1c(Cl)nc2sccn12` , target or system C. albicans ATCC 10231.
stdout: 63.7

stdin: Find the measured activity at 100 µM: item `O=C1Nc2cc(OC(F)(F)F)ccc2C1(c1c(Cl)nc2sccn12)c1c(Cl)nc2sccn12` , target or system C. albicans ATCC 10231.
stdout: 108

stdin: Find the measured activity at 100 µM: item `Cc1cn2c(C3(c4c(Cl)nc5sc(C)cn45)C(=O)Nc4cc(F)ccc43)c(Cl)nc2s1` , target or system C. albicans ATCC 10231.
stdout: 64.2

stdin: Find the measured activity at 100 µM: item `Cc1cn2c(C3(c4c(Cl)nc5sc(C)cn45)C(=O)Nc4ccc(F)cc43)c(Cl)nc2s1` , target or system C. albicans ATCC 10231.
stdout: 101

stdin: Find the measured activity at 100 µM: item `Cc1cn2c(C3(c4c(Cl)nc5sc(C)cn45)C(=O)N(Cc4ccc(Cl)cc4)c4ccccc43)c(Cl)nc2s1` , target or system C. albicans ATCC 10231.
stdout: 125

* * *

# System: C. albicans ATCC 10231
# assay.details: broth microdilution antimicrobial activity, C. albicans reference strain
# Format: cell-based, Candida albicans
# stated.conditions: Candida albicans, ATCC10231; 100 μM; growth relative to positive control; mean ± SD; read-out: Microbial growth, C. albicans
quantity: activity at 100 µM (%)
Write the answer as a number in %, unit excluded.

stdin: I have this molecule here, `Cc1cn2c(C3(c4c(Cl)nc5sc(C)cn45)C(=O)N(CC=Cc4ccccc4)c4ccccc43)c(Cl)nc2s1` , and I need its recorded activity at 100 µM.
stdout: 60.3

stdin: I have this molecule here, `Cc1cn2c(C3(c4c(Cl)nc5sc(C)cn45)C(=O)Nc4cc(I)ccc43)c(Cl)nc2s1` , and I need its recorded activity at 100 µM.
stdout: 59.6

stdin: I have this molecule here, `Cc1cn2c(C3(c4c(Cl)nc5sc(C)cn45)C(=O)Nc4cc(OC(F)(F)F)ccc43)c(Cl)nc2s1` , and I need its recorded activity at 100 µM.
stdout: 118

stdin: I have this molecule here, `COc1ccc2c(c1)C(c1c(Cl)nc3sc(C)cn13)(c1c(Cl)nc3sc(C)cn13)C(=O)N2` , and I need its recorded activity at 100 µM.
stdout: 101
